pIC50: −log10 of the molar value.
List of pIC50 tested on Serine/threonine-protein kinase MRCK alpha (Homo sapiens, UniProt Q5VT25).
Sequence (Q5VT25 whole entry): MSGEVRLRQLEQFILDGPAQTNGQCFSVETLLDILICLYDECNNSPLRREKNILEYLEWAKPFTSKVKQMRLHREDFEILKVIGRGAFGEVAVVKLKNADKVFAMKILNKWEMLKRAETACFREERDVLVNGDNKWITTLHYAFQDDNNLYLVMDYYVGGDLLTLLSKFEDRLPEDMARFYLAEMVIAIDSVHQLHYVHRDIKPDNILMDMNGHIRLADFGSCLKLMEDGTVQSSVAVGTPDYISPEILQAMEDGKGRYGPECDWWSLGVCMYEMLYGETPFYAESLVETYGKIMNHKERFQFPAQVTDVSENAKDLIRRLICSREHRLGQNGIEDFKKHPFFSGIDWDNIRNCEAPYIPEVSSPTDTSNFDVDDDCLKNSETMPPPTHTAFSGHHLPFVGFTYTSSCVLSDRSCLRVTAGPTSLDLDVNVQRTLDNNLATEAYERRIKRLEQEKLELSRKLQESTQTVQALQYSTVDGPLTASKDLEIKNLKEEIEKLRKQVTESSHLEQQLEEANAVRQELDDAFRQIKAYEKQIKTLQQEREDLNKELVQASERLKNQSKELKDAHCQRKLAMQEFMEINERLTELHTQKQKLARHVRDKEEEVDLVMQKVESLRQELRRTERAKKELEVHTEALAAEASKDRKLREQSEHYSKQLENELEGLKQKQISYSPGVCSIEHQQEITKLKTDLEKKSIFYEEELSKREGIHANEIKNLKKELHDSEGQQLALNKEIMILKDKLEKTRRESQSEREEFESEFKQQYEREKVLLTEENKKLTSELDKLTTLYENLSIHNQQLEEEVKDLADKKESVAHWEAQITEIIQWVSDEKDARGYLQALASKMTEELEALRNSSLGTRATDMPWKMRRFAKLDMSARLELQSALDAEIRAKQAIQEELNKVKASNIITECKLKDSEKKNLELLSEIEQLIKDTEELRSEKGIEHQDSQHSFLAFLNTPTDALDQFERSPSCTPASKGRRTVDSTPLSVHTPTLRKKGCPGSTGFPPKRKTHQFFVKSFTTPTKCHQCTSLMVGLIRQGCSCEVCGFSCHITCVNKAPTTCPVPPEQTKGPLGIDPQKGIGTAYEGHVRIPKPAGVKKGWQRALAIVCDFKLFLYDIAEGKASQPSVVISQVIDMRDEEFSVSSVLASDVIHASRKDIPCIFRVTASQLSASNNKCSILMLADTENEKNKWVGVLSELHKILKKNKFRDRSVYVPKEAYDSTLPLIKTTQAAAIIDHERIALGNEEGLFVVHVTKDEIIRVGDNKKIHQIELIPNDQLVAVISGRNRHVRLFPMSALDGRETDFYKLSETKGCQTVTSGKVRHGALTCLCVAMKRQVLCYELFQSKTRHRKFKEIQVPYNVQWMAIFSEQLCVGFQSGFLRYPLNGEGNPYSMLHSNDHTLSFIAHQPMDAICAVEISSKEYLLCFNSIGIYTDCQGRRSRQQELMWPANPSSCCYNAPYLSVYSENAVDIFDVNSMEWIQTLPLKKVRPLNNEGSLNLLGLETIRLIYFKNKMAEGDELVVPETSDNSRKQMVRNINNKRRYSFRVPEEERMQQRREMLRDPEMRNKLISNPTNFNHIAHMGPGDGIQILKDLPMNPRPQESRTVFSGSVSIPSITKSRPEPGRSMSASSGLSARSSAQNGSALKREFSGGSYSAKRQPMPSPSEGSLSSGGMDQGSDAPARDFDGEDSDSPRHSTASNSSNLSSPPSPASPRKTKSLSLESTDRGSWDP

# molecule-smiles, pIC50
rows = [
    ("COc1cccc(CN(C)C(=O)Nc2ccc(-c3cn[nH]c3)cc2)c1", 5.73),
    ("CCN(Cc1cccc(OC)c1)C(=O)Nc1ccc(-c2cn[nH]c2)cc1O[C@H]1CCN(C)C1", 5.81),
    ("COc1cccc(CN(CCO)C(=O)Nc2ccc(-c3cn[nH]c3)cc2)c1", 5.37),
]

###

- test-protocol: Clearance in Sprague-Dawley rat at 1 mg/kg, iv by LC-MS/MS analysis
- Assay type: ADME, organism-based
- Set-up: dose 1 mg/kg, route intravenous
- condition-info: in vivo
Entries and their clearance values follow.
measured-endpoint: clearance

# compound, val
measured = [
    ("COc1cccc(CN(CCN2CCCC2)C(=O)Nc2ccc(-c3cn[nH]c3)cc2)c1", "71 mL/min/kg"),
    ("CN(C)CCC(NC(=O)Nc1ccc(-c2cn[nH]c2)cc1)c1ccccc1 (stereo not given)", "91 mL/min/kg"),
    ("CCN(Cc1cccc(OC)c1)C(=O)Nc1ccc(-c2cn[nH]c2)cc1O[C@H]1CCN(C)C1", "30 mL/min/kg"),
    ("COc1cccc(CN(C)C(=O)Nc2ccc(-c3cn[nH]c3)cc2)c1", "9.4 mL/min/kg"),
    ("COc1cccc(CN(CCN2CCCCC2)C(=O)Nc2ccc(-c3cn[nH]c3)cc2)c1", "86 mL/min/kg"),
    ("COc1cccc(CN(CCN2CCOCC2)C(=O)Nc2ccc(-c3cn[nH]c3)cc2)c1", "63 mL/min/kg"),
    ("COc1cccc(CN(CCN(C)C)C(=O)Nc2ccc(-c3cn[nH]c3)cc2)c1", "176 mL/min/kg"),
    ("COc1cccc(C(CCO)NC(=O)Nc2ccc(-c3cn[nH]c3)cc2)c1 (stereo not given)", "5.9 mL/min/kg"),
    ("COc1cccc(CN(CCO)C(=O)Nc2ccc(-c3cn[nH]c3)cc2)c1", "11.2 mL/min/kg"),
    ("O=C(Nc1ccc(-c2cn[nH]c2)cc1)NC(CCO)c1cccc(F)c1 (stereo not given)", "4.9 mL/min/kg"),
]

###

Entries annotated with measured pIC50
- test-protocol: Inhibition of ROCK-mediated myosin light chain bisphosphorylation in rat A7R5 cells after 1 hr by fluorescence assay in presence of L-alpha-lysophosphatidic acid
- Type: cell-based
pIC50: −log10 of the molar value.

# molecule, pIC50
records = [
    ("O=C(Nc1ccc(-c2cn[nH]c2)cc1)NC(CCO)c1cccc(F)c1 (stereo not given)", 7.49),
    ("COc1cccc(CN(CCCN2CCCCC2)C(=O)Nc2ccc(-c3cn[nH]c3)cc2)c1", 7.12),
    ("O=C(Nc1ccc(-c2cn[nH]c2)cc1F)N(CCO)Cc1ccccc1", 7.48),
    ("COCCN(Cc1cccc(OC)c1)C(=O)Nc1ccc(-c2cn[nH]c2)cc1", 6.74),
    ("COc1cccc(CN(CCN)C(=O)Nc2ccc(-c3cn[nH]c3)cc2)c1", 8.10),
    ("COc1cccc(CN(CCO)C(=O)Nc2ccc(-c3cn[nH]c3)cc2)c1", 7.72),
    ("COc1cccc(CN(CCN2CCOCC2)C(=O)Nc2ccc(-c3cn[nH]c3)cc2)c1", 6.86),
    ("O=C(CCc1ccccc1)Nc1ccc(-c2cn[nH]c2)cc1", 7.04),
    ("CN(C)CCC(NC(=O)Nc1ccc(-c2cn[nH]c2)cc1)c1ccccc1 (stereo not given)", 7.40),
    ("O=C(Nc1ccc(-c2cn[nH]c2)cc1)NC(CCO)c1ccccc1 (stereo not given)", 7.32),
]
